Where do the numbers come from? From PubChem BioAssay (NCATS).

System: CP250
method_summary: qHTS profiling for inhibitors of Plasmodium falciparum proliferation (AID 504749); note: nearly all actives have a fitted effect of over 60% in size
assay_setup: P. falciparum in erythrocytes, SYBR Green DNA, 72 h; series mostly up to 28.7 µM
Records with an inconclusive call do not appear. The source made the active and inactive calls. Calls come from the whole dose curve; as a rule, active = well fitted inhibition curve with a large enough effect; inconclusive = small, poorly fitted or top-dose-only effect; inactive = flat fitted curve, though single readings scatter.
property_measured: outcome

Please review the entries below; each comes with its answer.
OCc1ccc(Cl)cc1Cl	inactive
CC(=O)Oc1cccc(O)c1	inactive
CC(=O)SC[C@@H](Cc1ccccc1)C(=O)NCC(=O)OCc1ccccc1	inactive
CNCc1ccccc1	inactive

Incoming: // outcome lookup, key: Cc1onc(-c2ccccc2)c1-c1ccc(S(N)(=O)=O)cc1
Outgoing: inactive

Incoming: Note, next up: O=c1[nH]c(=O)c2ccccc2o1
Outgoing: inactive

Incoming: Note, next up: CC(=O)OCC(COC(C)=O)OC(C)=O
Outgoing: inactive

Incoming: Note, next up: O=C(CN1CCNCC1)NC1CCCCC1
Outgoing: inactive

Incoming: Note, next up: CC1CCc2cc(F)cc3c(=O)c(C(=O)O)cn1c23 (centres undefined)
Outgoing: inactive

Incoming: Note, next up: O=C(OOC(=O)c1ccccc1)c1ccccc1
Outgoing: inactive

Incoming: Note, next up: Cc1c(Cn2ccnc2)c2ccccc2n1CCC(=O)O
Outgoing: inactive

Incoming: Note, next up: CCN(CC)CCc1nc(-c2ccccc2)no1
Outgoing: inactive

Incoming: Note, next up: CCCCCC(C)N (centres undefined)
Outgoing: inactive

Incoming: Note, next up: Cc1ncc(CO)c(CN)c1O
Outgoing: inactive

Incoming: Note, next up: CCN1CC(CCN2CCOCC2)C(c2ccccc2)(c2ccccc2)C1=O (centres undefined)
Outgoing: inactive

Incoming: Note, next up: OCC(O)CS (centres undefined)
Outgoing: inactive
